Measured TGI, listed per entry.
# System: MDA-N
# Protocol: NCI tumour cell line growth inhibition, 48 h

Record excerpt, results attached:
CON(C)c1nc(N)c(C#N)c(C#N)c1C#N; > 10 µM
COC(=O)C1OC(O[C@H]2CC[C@]3(C)[C@H]4CC=C5[C@@H]6CC(C)(C)CC[C@]6(C(=O)OC)CC[C@@]5(C)[C@]4(C)CC[C@H]3C2(C)C)C(O)C(O)C1O (stereo partly specified); 30.9 µM
Cc1cc(OCc2nc(N)nc(N)c2-c2ccc(Cl)c(Cl)c2)ccc1[N+](=O)[O-]; 22.9 µM
Cn1c(N/N=C/c2ccccc2)nc(-c2ccc3c(c2)OCO3)c(C#N)c1=O; > 100 µM
COc1ccccc1N1CCN(CCCCNC(=O)c2ccc([N+](=O)[O-])o2)CC1; 13.6 µM

Param readout = TGI; param system = MDA-N; param query = CC1=C(C(=O)NNC(=O)Cc2ccccc2)CC(C(=O)NNC(=O)Cc2ccccc2)=C(C)N1 ; response: value
> 100 µM

Value wanted: TGI (MDA-N) of entry O=C(O)c1cc(N=Nc2ccc([N+](=O)[O-])cc2)ccc1O
> 100 µM

# value lookup — system MDA-N, readout TGI, item Cc1ccc(S(=O)(=O)NC(=O)Nc2c(S(N)(=O)=O)cc(S(N)(=O)=O)c(Cl)c2Cl)cc1
> 100 µM

// fetch MDA-N TGI for C[C@@H]1C[C@H]2OC(=O)[C@@]3(C)CCC[C@@](C)([C@@H]23)[C@@]1(O)CCc1ccoc1
> 100 µM

Tell me reported TGI for O=C(N/N=C(/COc1ccccc1)N=Cc1ccncc1)c1ccncc1 , tested with MDA-N.
> 100 µM

Reported TGI for MDA-N, given Oc1ccc2ccccc2c1CCc1c(O)ccc2ccccc12 ?
27.6 µM

Every entry's value here was drawn from PubChem BioAssay (NCI).
